Each entry below lists one item and its recorded self-cleavage value.
B1: CPEB3 Ribozyme (parent)
chain: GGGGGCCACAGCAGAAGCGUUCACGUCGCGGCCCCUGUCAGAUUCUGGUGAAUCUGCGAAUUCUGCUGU

Variants of: B1
test.summary: self-cleavage, relative activity (ratio to wild type); higher = more cleavage; co-transcriptional
Could you keep your reply to the number by itself?

> print(dat)
         var    metric.name  result.value
1  G31C A42U  self-cleavage          0.18
2  C12U U46A  self-cleavage             1
3   G2U G37A  self-cleavage        0.0373
4  C22G U61C  self-cleavage         0.167

// next item, self-cleavage requested
Query: Form field: reported self-cleavage of U20G U49A
Reply: 0.26
